# MEASURED ON: KOR (Cavia porcellus)
# Construct: from tissue; host or cells: guinea pig cerebellum preparation
# PROTOCOL DETAILS: Opioid receptor competitive binding assay, KOR (3H-U-69,593)
# Set-up: species or system guinea pig
# ASSAY CONTEXT: Ki KOR, Table 9; 3H-U-69,593, guinea pig cerebellum preps; errors two standard deviations
Listed here: items and their measured pKi.
# pKi = -log10(concentration in molar units)

Sample answers from the record:
COMPOUND: NC(Cc1ccc(O)cc1)C(O)C/C=C/C(O)C(Cc1ccccc1)C(=O)NCCc1ccccc1 (single isomer, unassigned) [(S,S,S,R)-10]
pKi: 5.74

COMPOUND: NC(Cc1ccc(O)cc1)C(O)C/C=C/C(O)C(Cc1ccccc1)C(=O)NCCc1ccccc1 (single isomer, unassigned) [(S,R,R,R)-10]
pKi: 5.55

COMPOUND: NC(=O)C(Cc1ccccc1)NC(=O)C(Cc1ccccc1)C(O)/C=C\CC(O)C(N)Cc1ccc(O)cc1 (single isomer, unassigned) [(S,R,S,R)-9]
pKi: 5.77

Please report the recorded pKi for C=CC(O)C(Cc1ccccc1)NC(=O)C(Cc1ccccc1)C(O)/C=C/CC(O)C(N)Cc1ccc(O)cc1 (single isomer, unassigned) [(S,S,S,R)-12] . 5.98

State the recorded pKi for this entry: NC(=O)C(Cc1ccccc1)NC(=O)C(Cc1ccccc1)C(O)/C=C/CC(O)C(N)Cc1ccc(O)cc1 (single isomer, unassigned) [(S,R,S,R)-2] 5.54

Query: pKi; subject: NC(=O)C(Cc1ccccc1)NC(=O)C(Cc1ccccc1)C(O)/C=C\CC(O)C(N)Cc1ccc(O)cc1 (single isomer, unassigned) [(S,S,R,R)-9] 5.80

Entry NC(Cc1ccc(O)cc1)C(O)C/C=C/C(O)C(Cc1ccccc1)C(=O)NC(CO)Cc1ccccc1 (single isomer, unassigned) [(S,R,R,R)-11] has what pKi? 5.47

Fill in the blank: the reported pKi of NC(=O)C(Cc1ccccc1)NC(=O)C(Cc1ccccc1)C(O)/C=C\CC(O)C(N)Cc1ccc(O)cc1 (single isomer, unassigned) [(S,S,S,R)-9] is ____. 5.21

Consider the compound shown here: NC(Cc1ccc(O)cc1)C(O)C/C=C/C(O)C(Cc1ccccc1)C(=O)NC(CO)Cc1ccccc1 (single isomer, unassigned) [(S,S,S,R)-11] What is its recorded pKi? 5.22

Form field: reported pKi of NC(=O)C(Cc1ccccc1)NC(=O)C(Cc1ccccc1)C(O)/C=C/CC(O)C(N)Cc1ccc(O)cc1 (single isomer, unassigned) [(S,S,R,S)-2] 5.89

# lookup: pKi of NC(=O)C(Cc1ccccc1)NC(=O)C(Cc1ccccc1)C(O)/C=C\CC(O)C(N)Cc1ccc(O)cc1 (single isomer, unassigned) [(S,R,R,R)-9] 5.24

----------
# MEASURED ON: hDOR-1 (Homo sapiens)
# Construct: purchased Amersham Biosciences; host or cells: stably transfected HEK-293 cells (membrane preparation)
# PROTOCOL DETAILS: Opioid receptor competitive binding assay, DOR
# ASSAY CONTEXT: Table 13; selectivity for MOR versus DOR (footnote: 3H-DPDPE, hDOR-1)
Entries and their Ki DOR/Ki MOR values follow.
Answer as a number with no unit attached.

COMPOUND: Cc1cc(O)cc(C)c1CC(N)C(O)C/C=C/C(O)C(Cc1ccccc1)C(=O)NC(Cc1ccccc1)C(N)=O (single isomer, unassigned) [(S,R,S,R)-25]
Ki DOR/Ki MOR: 38

Could you now look at the following compound, please?
I would be grateful if you could share the reported Ki DOR/Ki MOR for Cc1cc(O)cc(C)c1CC(N)C(O)C/C=C/C(O)C(Cc1ccccc1)C(=O)NCCc1ccccc1 (single isomer, unassigned) [(S,S,R,S)-26] . 190

----------
# MEASURED ON: hMOR-1 (Homo sapiens)
# Construct: purchased Amersham Biosciences; host or cells: stably transfected CHO cells (membrane preparation)
# PROTOCOL DETAILS: Opioid receptor competitive binding assay, MOR (3H-DAMGO)
# ASSAY CONTEXT: Ki MOR, Table 3; 3H-DAMGO, hMOR-1 stably transfected into CHO cells; errors 95% confidence interval
EXPERIMENTAL READOUT: Ki

MOLECULE: C=CC(O)C(Cc1ccccc1)NC(=O)C(Cc1ccccc1)C(O)/C=C/CC(O)C(N)Cc1ccc(O)cc1 (single isomer, unassigned) [(S,S,R,R)-12]
RECORDED RESULT: 0.022 µM
//
MOLECULE: NC(=O)C(Cc1ccccc1)NC(=O)C(Cc1ccccc1)C(O)/C=C/CC(O)C(N)Cc1ccc(O)cc1 (single isomer, unassigned) [(S,S,R,S)-2]
RECORDED RESULT: 0.079 µM
//
MOLECULE: NC(Cc1ccc(O)cc1)C(O)C/C=C/C(O)C(Cc1ccccc1)C(=O)NCCc1ccccc1 (single isomer, unassigned) [(S,S,S,R)-10]
RECORDED RESULT: 0.021 µM
//
MOLECULE: NC(Cc1ccc(O)cc1)C(O)C/C=C/C(O)C(Cc1ccccc1)C(=O)NC(CO)Cc1ccccc1 (single isomer, unassigned) [(S,S,R,R)-11]
RECORDED RESULT: 0.016 µM
//
MOLECULE: C=CC(O)C(Cc1ccccc1)NC(=O)C(Cc1ccccc1)C(O)/C=C/CC(O)C(N)Cc1ccc(O)cc1 (single isomer, unassigned) [(S,S,S,R)-12]
RECORDED RESULT: 0.02 µM

Here is another molecule to look at.
// lookup Ki for NC(=O)C(Cc1ccccc1)OC(=O)C(Cc1ccccc1)C(O)/C=C/CC(O)C(N)Cc1ccc(O)cc1 [(S,S,S,R)-13] 0.037 µM

----------
# MEASURED ON: hMOR-1 (Homo sapiens)
# Construct: purchased Amersham Biosciences; host or cells: stably transfected CHO cells (membrane preparation)
# PROTOCOL DETAILS: Opioid receptor competitive binding assay, MOR (3H-DAMGO)
# ASSAY CONTEXT: Ki MOR, Table 4; 3H-DAMGO, hMOR-1 stably transfected into CHO cells; errors 95% confidence interval
EXPERIMENTAL READOUT: pKi
Expect pKi as a plain number equal to -log10 of the molar concentration.

Worked cases, pKi given:
MOLECULE: Cc1cc(O)cc(C)c1CC(N)C(O)C/C=C/C(O)C(Cc1ccccc1)C(=O)NC(Cc1ccccc1)C(N)=O (single isomer, unassigned) [(S,R,R,R)-25]
pKi: 8.80

MOLECULE: Cc1cc(O)cc(C)c1CC(N)C(O)C/C=C/C(O)C(Cc1ccccc1)C(=O)NCCc1ccccc1 (single isomer, unassigned) [(S,S,R,S)-26]
pKi: 9.19

Next, consider the following molecule.
Which pKi value is on record for Cc1cc(O)cc(C)c1CC(N)C(O)C/C=C/C(O)C(Cc1ccccc1)C(=O)NC(Cc1ccccc1)C(N)=O (single isomer, unassigned) [(S,S,R,S)-25] ? 8.92

----------
# MEASURED ON: hDOR-1 (Homo sapiens)
# Construct: purchased Amersham Biosciences; host or cells: stably transfected HEK-293 cells (membrane preparation)
# PROTOCOL DETAILS: Opioid receptor competitive binding assay, DOR
# ASSAY CONTEXT: Ki DOR, Table 7; 3H-diprenorphine, hDOR-1 stably transfected into HEK-293 cells; errors two standard deviations
Each entry below carries its reported pKi.
pKi here is simply -log10 of the concentration when that concentration is written in mol/L.

COMPOUND: Cc1cc(O)cc(C)c1CC(N)C(O)C/C=C/C(O)C(Cc1ccccc1)C(=O)NCCc1ccccc1 (single isomer, unassigned) [(S,S,S,R)-26]
pKi: 7.00

COMPOUND: Cc1cc(O)cc(C)c1CC(N)C(O)C/C=C/C(O)C(Cc1ccccc1)C(=O)NCCc1ccccc1 (single isomer, unassigned) [(S,S,R,R)-26]
pKi: 7.59

COMPOUND: Cc1cc(O)cc(C)c1CC(N)C(O)C/C=C/C(O)C(Cc1ccccc1)C(=O)NCCc1ccccc1 (single isomer, unassigned) [(S,R,R,R)-26]
pKi: 7.18

COMPOUND: Cc1cc(O)cc(C)c1CC(N)C(O)C/C=C/C(O)C(Cc1ccccc1)C(=O)NC(Cc1ccccc1)C(N)=O (single isomer, unassigned) [(S,R,R,R)-25]
pKi: 7.07

COMPOUND: Cc1cc(O)cc(C)c1CC(N)C(O)C/C=C/C(O)C(Cc1ccccc1)C(=O)NC(Cc1ccccc1)C(N)=O (single isomer, unassigned) [(S,S,S,R)-25]
pKi: 7.40

What reported pKi corresponds to Cc1cc(O)cc(C)c1CC(N)C(O)C/C=C/C(O)C(Cc1ccccc1)C(=O)NC(Cc1ccccc1)C(N)=O (single isomer, unassigned) [(S,R,S,R)-25] on hDOR-1 (Homo sapiens)? 7.34

// lookup pKi | system=hDOR-1 (Homo sapiens) | key= Cc1cc(O)cc(C)c1CC(N)C(O)C/C=C/C(O)C(Cc1ccccc1)C(=O)NCCc1ccccc1 (single isomer, unassigned) [(S,R,S,R)-26] 6.91

Query for hDOR-1 (Homo sapiens): what pKi does the record show for Cc1cc(O)cc(C)c1CC(N)C(O)C/C=C/C(O)C(Cc1ccccc1)C(=O)NCCc1ccccc1 (single isomer, unassigned) [(S,S,R,S)-26] ? 6.92

Look up pKi with hDOR-1 (Homo sapiens) for this compound: Cc1cc(O)cc(C)c1CC(N)C(O)C/C=C/C(O)C(Cc1ccccc1)C(=O)NC(CO)Cc1ccccc1 [(S,S,S,R)-27] 7.27

# value lookup — system hDOR-1 (Homo sapiens), readout pKi, item Cc1cc(O)cc(C)c1CC(N)C(O)C/C=C/C(O)C(Cc1ccccc1)C(=O)NC(Cc1ccccc1)C(N)=O (single isomer, unassigned) [(S,S,R,R)-25] 7.44

Form entry - test system: hDOR-1 (Homo sapiens); read-out: pKi; compound: Cc1cc(O)cc(C)c1CC(N)C(O)C/C=C/C(O)C(Cc1ccccc1)C(=O)NC(Cc1ccccc1)C(N)=O (single isomer, unassigned) [(S,S,R,S)-25] 6.64

What measured pKi is associated with Cc1cc(O)cc(C)c1CC(N)C(O)C/C=C/C(O)C(Cc1ccccc1)C(=O)OC(CO)Cc1ccccc1 [(S,S,S,R)-30] on hDOR-1 (Homo sapiens)? 7.77
